The reported measurements were obtained from patent US20240239735A1.

- Protocol summary: Solubility test in biologically relevant media at 37° C. (HPLC, pH, XRPD of filter cake)
- Assay type: physicochemical
- Condition description: FeSSIF, 37° C., 24 h
Property: Solubility (µg/mL)

[A] COc1cccc(CNC(=O)N2CCc3cc(-c4c[nH]nc4N)c(F)cc32)c1 [Fumarate crystal form I]
[B] COc1cccc(CNC(=O)N2CCc3cc(-c4c[nH]nc4N)c(F)cc32)c1 [Oxalate crystal form I]
[C] COc1cccc(CNC(=O)N2CCc3cc(-c4c[nH]nc4N)c(F)cc32)c1 [Fumarate crystal form II]
Rank the 3 molecules: largest Solubility first, smallest last. API: response body holds the labels in the requested order. B, C, A
(B: 255.4 µg/mL, C: 132.92 µg/mL, A: 61.39 µg/mL)

====

- Protocol summary: Solid state stability test (HPLC purity, XRPD)
- Type: physicochemical
- Condition description: 0 weeks, 265 nm, HPLC method of 7-day test
Property: Initial purity (Area %)

COc1cccc(CNC(=O)N2CCc3cc(-c4c[nH]nc4N)c(F)cc32)c1 [Fumarate crystal form II] : 99.30
COc1cccc(CNC(=O)N2CCc3cc(-c4c[nH]nc4N)c(F)cc32)c1 [Free base crystal form II] : 98.62
COc1cccc(CNC(=O)N2CCc3cc(-c4c[nH]nc4N)c(F)cc32)c1 [Fumarate crystal form I] : 99.85
COc1cccc(CNC(=O)N2CCc3cc(-c4c[nH]nc4N)c(F)cc32)c1 [Oxalate crystal form I] : 96.97

====

- Protocol summary: Pharmacokinetic study in SD rats, intragastric administration
- Type: in vivo
- Condition description: female, SD, rat, plasma, po, 20 mg/kg, female SD rats, 20 mg/kg in 5% TPGS, compound A in plasma, read-out: Cmax
Property: Cmax (ng/mL)
I only need the number, in ng/mL, no unit after it.

Provide measured Cmax value, entry: COc1cccc(CNC(=O)N2CCc3cc(-c4c[nH]nc4N)c(F)cc32)c1 [Free base crystal form II] 3620

====

- Protocol summary: Pharmacokinetic study in SD rats, intragastric administration
- Format: in vivo
- Condition description: male, SD, rat, plasma, po, 20 mg/kg, male SD rats, 20 mg/kg in 5% TPGS, compound A in plasma, read-out: Cmax
Property: Cmax (ng/mL)
I only need the number, in ng/mL, no unit after it.

Provide measured Cmax value, entry: COc1cccc(CNC(=O)N2CCc3cc(-c4c[nH]nc4N)c(F)cc32)c1 [Fumarate crystal form I] 3050

====

- Protocol summary: Solid state stability test (HPLC purity, XRPD)
- Format: physicochemical
- Condition description: 1 week, 60° C./sealed, 265 nm
Property: Purity (Area %)

COc1cccc(CNC(=O)N2CCc3cc(-c4c[nH]nc4N)c(F)cc32)c1 [Fumarate crystal form I] : 99.86
COc1cccc(CNC(=O)N2CCc3cc(-c4c[nH]nc4N)c(F)cc32)c1 [Oxalate crystal form I] : 96.13
COc1cccc(CNC(=O)N2CCc3cc(-c4c[nH]nc4N)c(F)cc32)c1 [Free base crystal form II] : 98.64
COc1cccc(CNC(=O)N2CCc3cc(-c4c[nH]nc4N)c(F)cc32)c1 [Fumarate crystal form II] : 99.20
